targetEntity: human sEH (Homo sapiens, UniProt P34913)
Construct: made in house; host or cells: baculovirus expression system
Sequence (P34913 1-555): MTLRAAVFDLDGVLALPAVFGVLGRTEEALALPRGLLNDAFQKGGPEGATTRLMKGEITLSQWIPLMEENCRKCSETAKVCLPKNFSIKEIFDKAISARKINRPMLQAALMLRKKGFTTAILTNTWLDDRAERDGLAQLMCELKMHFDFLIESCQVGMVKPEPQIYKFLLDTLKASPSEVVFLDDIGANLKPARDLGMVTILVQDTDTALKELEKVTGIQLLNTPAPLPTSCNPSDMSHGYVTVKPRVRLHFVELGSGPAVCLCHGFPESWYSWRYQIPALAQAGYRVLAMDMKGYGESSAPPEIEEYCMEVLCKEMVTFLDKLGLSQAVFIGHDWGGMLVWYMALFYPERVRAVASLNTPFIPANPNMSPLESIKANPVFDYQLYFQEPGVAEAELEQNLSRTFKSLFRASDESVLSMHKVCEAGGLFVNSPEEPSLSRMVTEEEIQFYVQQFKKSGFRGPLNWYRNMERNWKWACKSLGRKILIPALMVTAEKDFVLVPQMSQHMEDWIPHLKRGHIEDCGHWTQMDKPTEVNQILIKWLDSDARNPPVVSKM
assayProtocol: Inhibition of recombinant human sEH, IC50 assay with 4-nitrophenyl-trans-2,3-epoxy-3-phenylpropyl carbonate as substrate
Type: biochemical
testContext: Table 3; […] enzyme, 5 min preincubation, pH 7.4, 30° C.; means ± SD; read-out: IC50 (μM) Human sEH
Procedure: Assays were performed in triplicate. […] The curve was generated from at least three separate runs, each in triplicate, to obtain the standard deviation (SD) given in Table 1 thru Table 4.
measurementKind: IC50 (µM)

CCCCCCC(=O)CCCNC(=O)Nc1cccc(Cl)c1 [Compound 794, 1-(3-chlorophenyl)-3-(4-oxodecyl)urea]	2.1

(A) CCCCCNC(=O)CCCNC(=O)Nc1cccc(Cl)c1 [Compound 768]
(B) CCCCCOC(=O)CCCNC(=O)Nc1cccc(Cl)c1 [Compound 767]
Consider A and B . Which of these has its IC50 at a higher number? Indicate which entry you chose by stating its label.
A

###

targetEntity: human sEH (Homo sapiens, UniProt P34913)
Construct: made in house; host or cells: baculovirus expression system
Sequence (P34913 1-555): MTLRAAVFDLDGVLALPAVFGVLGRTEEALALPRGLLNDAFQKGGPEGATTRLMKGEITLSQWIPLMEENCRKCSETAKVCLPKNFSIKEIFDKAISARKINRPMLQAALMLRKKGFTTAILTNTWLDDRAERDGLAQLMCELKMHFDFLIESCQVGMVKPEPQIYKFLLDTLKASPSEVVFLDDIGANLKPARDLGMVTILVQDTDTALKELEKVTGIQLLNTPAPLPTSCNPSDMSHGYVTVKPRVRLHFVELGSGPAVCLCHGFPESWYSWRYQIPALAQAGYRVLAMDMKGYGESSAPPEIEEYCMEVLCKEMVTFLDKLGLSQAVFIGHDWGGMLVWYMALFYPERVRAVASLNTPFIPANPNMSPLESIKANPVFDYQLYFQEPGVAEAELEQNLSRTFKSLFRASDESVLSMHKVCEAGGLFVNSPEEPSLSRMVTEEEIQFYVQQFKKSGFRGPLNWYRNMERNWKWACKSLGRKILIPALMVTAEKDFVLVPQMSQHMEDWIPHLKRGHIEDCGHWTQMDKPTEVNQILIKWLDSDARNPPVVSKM
assayProtocol: Inhibition of recombinant human sEH, IC50 assay with 4-nitrophenyl-trans-2,3-epoxy-3-phenylpropyl carbonate as substrate
Type: biochemical
testContext: Table 9; established protocols; read-out: IC50 (μM) Human sEH
measurementKind: IC50 (µM)

O=C(NC1CCC(OCCOCCOCC(F)(F)F)CC1)NC12CC3CC(CC(C3)C1)C2 (stereo not drawn) [Compound 985]	0.1
C=CCOC1CCC(NC(=O)NC23CC4CC(CC(C4)C2)C3)CC1 (stereo not drawn) [Compound 982]	0.1
CCOC(=O)c1ccc(C(C#N)OC(=O)C2CCCC(NC(=O)NC34CC5CC(CC(C5)C3)C4)C2)cc1 (stereo not drawn) [Compound 1009]	0.1

###

targetEntity: mouse sEH (Mus musculus)
Construct: made in house; host or cells: baculovirus expression system
assayProtocol: Inhibition of recombinant mouse sEH, IC50 assay with 4-nitrophenyl-trans-2,3-epoxy-3-phenylpropyl carbonate as substrate
Assay type: biochemical
testContext: Table 6; established protocols; read-out: IC50 (μM) Mouse sEH
measurementKind: IC50 (µM)

CCCCCOCCCCNC(=O)NC12CC3CC(CC(C3)C1)C2 [Compound 868]	0.05
CCCOCCCCCCNC(=O)NC12CC3CC(CC(C3)C1)C2 [Compound 870]	0.05
CCCCCCCOCCNC(=O)NC12CC3CC(CC(C3)C1)C2 [Compound 866]	0.06
CCCCCCOCCCNC(=O)NC12CC3CC(CC(C3)C1)C2 [Compound 867]	0.05

###

targetEntity: mouse sEH (Mus musculus, UniProt P34914)
Construct: made in house; host or cells: baculovirus expression system
Sequence (P34914 1-554): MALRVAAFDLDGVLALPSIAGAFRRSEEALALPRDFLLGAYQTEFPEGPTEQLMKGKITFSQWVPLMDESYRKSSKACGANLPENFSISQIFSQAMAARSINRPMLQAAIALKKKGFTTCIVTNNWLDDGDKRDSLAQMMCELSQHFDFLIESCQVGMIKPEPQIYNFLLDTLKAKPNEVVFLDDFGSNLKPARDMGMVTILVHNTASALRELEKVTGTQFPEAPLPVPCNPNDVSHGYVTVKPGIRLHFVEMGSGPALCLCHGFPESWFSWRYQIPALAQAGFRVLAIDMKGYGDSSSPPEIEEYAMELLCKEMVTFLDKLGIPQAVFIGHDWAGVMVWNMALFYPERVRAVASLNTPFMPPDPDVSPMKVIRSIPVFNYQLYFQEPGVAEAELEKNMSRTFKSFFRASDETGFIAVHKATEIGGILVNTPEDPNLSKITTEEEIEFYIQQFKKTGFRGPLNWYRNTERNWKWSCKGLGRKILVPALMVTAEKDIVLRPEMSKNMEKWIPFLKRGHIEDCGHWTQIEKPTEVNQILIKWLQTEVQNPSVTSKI
assayProtocol: Inhibition of recombinant mouse sEH, IC50 assay with 4-nitrophenyl-trans-2,3-epoxy-3-phenylpropyl carbonate as substrate
Type: biochemical
testContext: Table 3; […] enzyme, 5 min preincubation, pH 7.4, 30° C.; means ± SD; read-out: IC50 (μM) Mouse sEH
measurementKind: IC50 (µM)

CCCCCOC(=O)CCCNC(=O)Nc1cccc(Cl)c1	0.37
CCCCCOC(=O)NCCNC(=O)Nc1cccc(Cl)c1	78
CCCCCCC(=O)CCCNC(=O)Nc1cccc(Cl)c1	0.41
CCCCCCC(=O)NCCNC(=O)Nc1cccc(Cl)c1	100

(P) CCCCCNC(=O)NCCNC(=O)Nc1cccc(Cl)c1
(Q) CCCCCNC(=O)CCCNC(=O)Nc1cccc(Cl)c1
For P and Q , which recorded IC50 is lower? Indicate which entry you chose by stating its label.
Q
(Q: 7.2 µM, P: 110 µM)

###

targetEntity: human sEH (Homo sapiens)
Construct: made in house; host or cells: baculovirus expression system
assayProtocol: Inhibition of recombinant human sEH, IC50 assay with 4-nitrophenyl-trans-2,3-epoxy-3-phenylpropyl carbonate as substrate
Assay type: biochemical
testContext: Table 4; […] enzyme, 5 min preincubation, pH 7.4, 30° C.; means ± SD; read-out: IC50 (μM) Human sEH
measurementKind: IC50 (µM)

CCC(C)OC(=O)CCCCCCCCCCCNC(=O)NC12CC3CC(CC(C3)C1)C2 (stereo not drawn) [Compound 802]	0.1
CC(C)COC(=O)CCCCCCCCCCCNC(=O)NC12CC3CC(CC(C3)C1)C2 [Compound 803]	0.1
O=C(NCCCCCCCCCCCC(=O)OCc1ccccc1)NC12CC3CC(CC(C3)C1)C2 [Compound 804]	0.13

(I) C=CCOC(=O)CCCCCCCCCCCNC(=O)NC12CC3CC(CC(C3)C1)C2 [Compound 781]
(II) O=C(NCCCCCCCCCCCC(=O)OCC12CC3CC(CC(C3)C1)C2)NC12CC3CC(CC(C3)C1)C2 [Compound 786]
For I and II , which recorded IC50 is lower? Indicate which entry you chose by stating its label.
I

###

targetEntity: mouse sEH (Mus musculus, UniProt P34914)
Construct: made in house; host or cells: baculovirus expression system
assayProtocol: Inhibition of recombinant mouse sEH, IC50 assay with 4-nitrophenyl-trans-2,3-epoxy-3-phenylpropyl carbonate as substrate
Format: biochemical
testContext: Table 1; […] enzyme, 5 min preincubation, pH 7.4, 30° C., [S] = 40 μM; means ± SD of three experiments; read-out: IC50 (μM) Mouse sEH
measurementKind: IC50 (µM)

COC(=O)CNC(=O)NC1CCCCC1	33

(I) COC(=O)CCNC(=O)NC1CCCCC1
(II) O=C(O)CCNC(=O)NC1CCCCC1
Consider I and II . Which of these has its IC50 at a higher number? Indicate which entry you chose by stating its label.
II
(II: 122 µM, I: 2.5 µM)
